- Experimental Target: MMP-9 (Homo sapiens)
- Sequence (P14780 107-707 limits assumed): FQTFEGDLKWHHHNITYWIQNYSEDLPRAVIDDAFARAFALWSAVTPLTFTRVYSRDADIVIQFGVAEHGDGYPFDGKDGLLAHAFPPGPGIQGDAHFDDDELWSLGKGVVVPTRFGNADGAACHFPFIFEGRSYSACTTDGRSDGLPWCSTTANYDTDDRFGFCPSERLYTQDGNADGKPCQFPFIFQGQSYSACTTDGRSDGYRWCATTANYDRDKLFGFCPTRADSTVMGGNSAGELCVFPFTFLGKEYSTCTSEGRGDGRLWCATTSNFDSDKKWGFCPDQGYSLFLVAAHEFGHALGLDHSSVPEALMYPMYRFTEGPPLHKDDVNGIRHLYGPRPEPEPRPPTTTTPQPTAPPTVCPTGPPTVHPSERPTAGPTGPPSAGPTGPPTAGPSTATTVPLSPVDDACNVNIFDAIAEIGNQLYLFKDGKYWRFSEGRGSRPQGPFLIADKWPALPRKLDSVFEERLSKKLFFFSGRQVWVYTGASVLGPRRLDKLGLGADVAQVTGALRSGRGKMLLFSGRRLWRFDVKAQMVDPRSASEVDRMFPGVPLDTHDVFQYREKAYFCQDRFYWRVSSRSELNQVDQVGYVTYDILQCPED
- Method Summary: MMP microfluorometric profiling assay (fluorogenic Mca-peptide substrate)
pIC50: −log10 of the molar value. Structures can show the parent of a compound that is named as a salt.
Measured Parameter: pIC50

In [3]: df
Out[3]:
                                    compound  measured_parameter  reported
 0  C[C@H](NS(=O)(=O)N1CCOCC1)C(=O)NC1=NN=C(c2ccc(Cl)cc2)CS1               pIC50      5.92
 1  C[C@H](NS(=O)(=O)c1ccccc1)C(=O)NC1=NN=C(c2ccc([N+](=O)[O-])cc2)CS1               pIC50      6.26
 2  CC(C)[C@H](NS(=O)(=O)c1ccccc1)C(=O)NC1=NN=C(c2ccc(Cl)cc2)CS1               pIC50      6.07
 3  O=C1C[C@@H](C(=O)NC2=NN=C(c3ccc(Cl)cc3)CS2)NC(=O)N1               pIC50      6.11
 4  C[C@H](NS(=O)(=O)c1ccccc1)C(=O)NC1=NN=C(c2ccc(Cl)s2)CS1               pIC50      6.14
 5  COc1ccc(S(=O)(=O)NCC(=O)NC2=NN=C(c3c(F)c(F)c(F)c(F)c3F)CS2)cc1               pIC50      5.59
 6  CC(C)(C)c1ccc(S(=O)(=O)NCC(=O)NC2=NN=C(c3ccc(Cl)cc3Cl)CS2)cc1               pIC50      5.59
 7  C[C@H](NS(=O)(=O)c1ccccc1)C(=O)NC1=NN=C(c2ccc(C(F)(F)F)cc2)CS1               pIC50      5.98
 8  C=CCNC1=NN=C(c2ccc(Cl)cc2)CS1 [Example 31, hydrobromide]               pIC50      6.11
 9  C[C@@H](NS(=O)(=O)c1ccccc1)C(=O)NC1=NN=C(c2ccc(F)cc2)CS1               pIC50      6.67
10  COc1ccc(S(=O)(=O)NCC(=O)NC2=NN=C(c3ccc(Cl)cc3Cl)CS2)cc1               pIC50      6.18
11  C[C@H](NS(=O)(=O)c1cccnc1)C(=O)NC1=NN=C(c2ccc(Cl)cc2)CS1               pIC50      6.59
12  C[C@H](NS(=O)(=O)c1ccccc1)C(=O)NC1=NN=C(c2ccc(F)cc2)CS1               pIC50      6.16
13  COc1ccc(C2=NN=C(NC(=O)[C@H](C)NS(=O)(=O)c3ccccc3)SC2)cc1               pIC50      5.85
14  COc1ccc(S(=O)(=O)N[C@@H](C)C(=O)NC2=NN=C(c3ccc(C)cc3)CS2)cc1               pIC50      6.16
15  C[C@@H](NS(=O)(=O)c1ccccc1)C(=O)NC1=NN=C(c2ccc(C#N)cc2)CS1               pIC50      6.63
